Data provenance is the supplement of paper PMC10307832.

# Test system: HCC-15
# Experimental Details: relative viability (nuclei count vs DMSO), 5 days (fraction); higher = more cells survive
# Condition Set: first compound 0.01581 µM
Property Measured: relative viability
One number for each entry.

A selection of reference data follows.
COc1cc2nccc(Oc3ccc(NC(=O)Nc4cc(C)on4)c(Cl)c3)c2cc1OC [Tivozanib] + O=C(CCCCCCC(=O)Nc1ccccc1)NO [Vorinostat] (partner 1 µM) :: 0.896
COc1cc2nccc(Oc3ccc(NC(=O)Nc4cc(C)on4)c(Cl)c3)c2cc1OC [Tivozanib] + NC(=O)Nc1cc(-c2cccc(F)c2)sc1C(=O)N[C@H]1CCCNC1 [AZD7762] (partner 0.2 µM) :: 1.28

Please look at the following compound next.
QUERY: Tell me the measured relative viability of COc1cc2nccc(Oc3ccc(NC(=O)Nc4cc(C)on4)c(Cl)c3)c2cc1OC [Tivozanib] + CC(C)C[C@H](NC(=O)[C@H](Cc1ccccc1)NC(=O)c1cnccn1)B(O)O [Bortezomib] (partner 0.002 µM) , please.
RESULT: 1.04

----------
Please go through the items and note down their relative viability.
# Tested on: NCI-H1650
# Experimental Details: relative viability (nuclei count vs DMSO), 5 days (fraction); higher = more cells survive
# Condition Set: first compound 0.01581 µM
Give bare numbers.

Would you please look over these solved cases?
COc1cc2nccc(Oc3ccc(NC(=O)Nc4cc(C)on4)c(Cl)c3)c2cc1OC [Tivozanib] + CC(C)C[C@H](NC(=O)[C@H](Cc1ccccc1)NC(=O)c1cnccn1)B(O)O [Bortezomib] (partner 0.002 µM) :: 0.21
COc1cc2nccc(Oc3ccc(NC(=O)Nc4cc(C)on4)c(Cl)c3)c2cc1OC [Tivozanib] + CC(=O)Nc1cccc(-n2c(=O)n(C3CC3)c(=O)c3c(Nc4ccc(I)cc4F)n(C)c(=O)c(C)c32)c1 [Trametinib] (partner 0.02 µM) :: 0.582

Each compound below has a reported value. Please supply its relative viability.
1. COc1cc2nccc(Oc3ccc(NC(=O)Nc4cc(C)on4)c(Cl)c3)c2cc1OC [Tivozanib] + O=C(c1cc(Cc2n[nH]c(=O)c3ccccc23)ccc1F)N1CCN(C(=O)C2CC2)CC1 [Olaparib] (partner 8 µM)
2. Nc1ccn([C@@H]2O[C@H](CO)[C@@H](O)[C@@H]2O)c(=O)n1 [Cytarabine] + CS(=O)(=O)N1CCN(Cc2cc3nc(-c4cccc5[nH]ncc45)nc(N4CCOCC4)c3s2)CC1 [Pictilisib] (partner 1 µM)

RESULT:
1. 0.94
2. 0.467

For the 5 compounds below, give their relative viability values.
1. Nc1ccn([C@@H]2O[C@H](CO)[C@@H](O)[C@@H]2O)c(=O)n1 [Cytarabine] + Cc1cc(Nc2cc(N3CCN(C)CC3)nc(Sc3ccc(NC(=O)C4CC4)cc3)n2)n[nH]1 [Tozasertib] (partner 0.1 µM)
2. Nc1ccn([C@@H]2O[C@H](CO)[C@@H](O)[C@@H]2O)c(=O)n1 [Cytarabine] + COc1cccc2cc(-c3nc([C@H]4CC[C@H](C(=O)O)CC4)n4ncnc(N)c34)[nH]c12 [OSI-027] (partner 0.5 µM)
3. COc1cc2nccc(Oc3ccc(NC(=O)Nc4cc(C)on4)c(Cl)c3)c2cc1OC [Tivozanib] + Cc1cc(Nc2cc(N3CCN(C)CC3)nc(Sc3ccc(NC(=O)C4CC4)cc3)n2)n[nH]1 [Tozasertib] (partner 0.1 µM)
4. COc1cc2nccc(Oc3ccc(NC(=O)Nc4cc(C)on4)c(Cl)c3)c2cc1OC [Tivozanib] + Nc1nc2[nH]cc(CCc3ccc(C(=O)N[C@@H](CCC(=O)O)C(=O)O)cc3)c2c(=O)[nH]1 [Pemetrexed] (partner 0.2 µM)
5. COc1cc2nccc(Oc3ccc(NC(=O)Nc4cc(C)on4)c(Cl)c3)c2cc1OC [Tivozanib] + O=C(CCCCCCC(=O)Nc1ccccc1)NO [Vorinostat] (partner 1 µM)

RESULT:
1. 0.33
2. 0.507
3. 0.436
4. 0.342
5. 0.529

----------
Would you mind telling me the reported relative viability of each entry?
# Tested on: NCI-H1755
# Experimental Details: relative viability (nuclei count vs DMSO), 5 days (fraction); higher = more cells survive
# Condition Set: first compound 0.5 µM
Numbers only.

Worked cases, relative viability given:
COc1cc2nccc(Oc3ccc(NC(=O)Nc4cc(C)on4)c(Cl)c3)c2cc1OC [Tivozanib] + Cc1nc(NC(=O)N2CCC[C@H]2C(N)=O)sc1-c1ccnc(C(C)(C)C(F)(F)F)c1 [Alpelisib] (partner 2 µM) :: 0.84
Nc1ccn([C@@H]2O[C@H](CO)[C@@H](O)[C@@H]2O)c(=O)n1 [Cytarabine] + CC(=O)Nc1cccc(-n2c(=O)n(C3CC3)c(=O)c3c(Nc4ccc(I)cc4F)n(C)c(=O)c(C)c32)c1 [Trametinib] (partner 0.02 µM) :: 0.407
Nc1ccn([C@@H]2O[C@H](CO)[C@@H](O)[C@@H]2O)c(=O)n1 [Cytarabine] + Nc1nc2[nH]cc(CCc3ccc(C(=O)N[C@@H](CCC(=O)O)C(=O)O)cc3)c2c(=O)[nH]1 [Pemetrexed] (partner 0.2 µM) :: 0.351
COc1cc2nccc(Oc3ccc(NC(=O)Nc4cc(C)on4)c(Cl)c3)c2cc1OC [Tivozanib] + CS(=O)(=O)CCNCc1ccc(-c2ccc3ncnc(Nc4ccc(OCc5cccc(F)c5)c(Cl)c4)c3c2)o1 [Lapatinib] (partner 2 µM) :: 1.02
COc1cc2nccc(Oc3ccc(NC(=O)Nc4cc(C)on4)c(Cl)c3)c2cc1OC [Tivozanib] + C[C@]1(O)C[C@@H](c2nc(-c3ccc4ccc(-c5ccccc5)nc4c3)c3c(N)nccn32)C1 [Linsitinib] (partner 1 µM) :: 0.96

For each entry beneath this line, provide reported relative viability.
1. COc1cc2nccc(Oc3ccc(NC(=O)Nc4cc(C)on4)c(Cl)c3)c2cc1OC [Tivozanib] + Nc1ncn([C@H]2C[C@H](O)[C@@H](CO)O2)c(=O)n1 [Decitabine] (partner 2 µM)
2. COc1cc2nccc(Oc3ccc(NC(=O)Nc4cc(C)on4)c(Cl)c3)c2cc1OC [Tivozanib] + CC(=O)Nc1cccc(-n2c(=O)n(C3CC3)c(=O)c3c(Nc4ccc(I)cc4F)n(C)c(=O)c(C)c32)c1 [Trametinib] (partner 0.02 µM)

RESULT:
0.704
0.77

----------
# Tested on: NCI-H650
# Experimental Details: relative viability (nuclei count vs DMSO), 5 days (fraction); higher = more cells survive
# Condition Set: first compound 0.05 µM
Property Measured: relative viability
Answers are plain numbers.

Record excerpt, results attached:
Nc1ccn([C@@H]2O[C@H](CO)[C@@H](O)[C@@H]2O)c(=O)n1 [Cytarabine] + CCNC(=O)c1noc(-c2cc(C(C)C)c(O)cc2O)c1-c1ccc(CN2CCOCC2)cc1 [Luminespib] (partner 0.01 µM) :: 0.253
COc1cc2nccc(Oc3ccc(NC(=O)Nc4cc(C)on4)c(Cl)c3)c2cc1OC [Tivozanib] + NC(=O)Nc1cc(-c2cccc(F)c2)sc1C(=O)N[C@H]1CCCNC1 [AZD7762] (partner 0.2 µM) :: 0.976

Consider the record given below.
QUERY: Find relative viability (NCI-H650) for the entry COc1cc2nccc(Oc3ccc(NC(=O)Nc4cc(C)on4)c(Cl)c3)c2cc1OC [Tivozanib] + CC(=O)c1c(C)c2cnc(Nc3ccc(N4CCNCC4)cn3)nc2n(C2CCCC2)c1=O [Palbociclib] (partner 0.5 µM)
RESULT: 0.338

----------
# Test system: NCI-H661
# Experimental Details: relative viability (nuclei count vs DMSO), 5 days (fraction); higher = more cells survive
# Condition Set: first compound 2.53 µM
For each entry below, report its relative viability value.
One number for each entry.

Below, each entry is followed by its recorded relative viability result.
O=c1[nH]c2ccccc2n1C1CCN(CCCC(c2ccc(F)cc2)c2ccc(F)cc2)CC1 [Pimozide] + CC(=O)c1c(C)c2cnc(Nc3ccc(N4CCNCC4)cn3)nc2n(C2CCCC2)c1=O [Palbociclib] (partner 0.5 µM) :: 0.395
O=c1[nH]c2ccccc2n1C1CCN(CCCC(c2ccc(F)cc2)c2ccc(F)cc2)CC1 [Pimozide] + N=C(N)NC(=N)NCCc1ccccc1 [Phenformin] (partner 250 µM) :: 0.263

Lab note: next compound to report on.
QUERY: What value of relative viability has been recorded for this entry: O=c1[nH]c2ccccc2n1C1CCN(CCCC(c2ccc(F)cc2)c2ccc(F)cc2)CC1 [Pimozide] + COc1cccc2cc(-c3nc([C@H]4CC[C@H](C(=O)O)CC4)n4ncnc(N)c34)[nH]c12 [OSI-027] (partner 0.5 µM)
RESULT: 0.533

----------
# Test system: LCLC-97TM1
# Experimental Details: relative viability (nuclei count vs DMSO), 5 days (fraction); higher = more cells survive
# Condition Set: first compound 0.253 µM
Property Measured: relative viability
Give bare numbers.

O=c1[nH]c2ccccc2n1C1CCN(CCCC(c2ccc(F)cc2)c2ccc(F)cc2)CC1 [Pimozide] + CC(=O)c1c(C)c2cnc(Nc3ccc(N4CCNCC4)cn3)nc2n(C2CCCC2)c1=O [Palbociclib] (partner 0.5 µM) :: 0.237
O=c1[nH]c2ccccc2n1C1CCN(CCCC(c2ccc(F)cc2)c2ccc(F)cc2)CC1 [Pimozide] + CC(C)C[C@H](NC(=O)[C@H](Cc1ccccc1)NC(=O)c1cnccn1)B(O)O [Bortezomib] (partner 0.002 µM) :: 0.637
Cc1cnc(-c2cnc(NCCNc3ccc(C#N)cn3)nc2-c2ccc(Cl)cc2Cl)[nH]1 + C[C@@H](Oc1cc(-c2cnn(C3CCNCC3)c2)cnc1N)c1c(Cl)ccc(F)c1Cl [Crizotinib] (partner 1 µM) :: 0.401

QUERY: Look up relative viability with LCLC-97TM1 for this molecule: O=c1[nH]c2ccccc2n1C1CCN(CCCC(c2ccc(F)cc2)c2ccc(F)cc2)CC1 [Pimozide] + N=C(N)NC(=N)NCCc1ccccc1 [Phenformin] (partner 250 µM)
RESULT: 0.403
